# TARGET ENTITY: hDBP (Homo sapiens)
# Sequence (P02774 17-474): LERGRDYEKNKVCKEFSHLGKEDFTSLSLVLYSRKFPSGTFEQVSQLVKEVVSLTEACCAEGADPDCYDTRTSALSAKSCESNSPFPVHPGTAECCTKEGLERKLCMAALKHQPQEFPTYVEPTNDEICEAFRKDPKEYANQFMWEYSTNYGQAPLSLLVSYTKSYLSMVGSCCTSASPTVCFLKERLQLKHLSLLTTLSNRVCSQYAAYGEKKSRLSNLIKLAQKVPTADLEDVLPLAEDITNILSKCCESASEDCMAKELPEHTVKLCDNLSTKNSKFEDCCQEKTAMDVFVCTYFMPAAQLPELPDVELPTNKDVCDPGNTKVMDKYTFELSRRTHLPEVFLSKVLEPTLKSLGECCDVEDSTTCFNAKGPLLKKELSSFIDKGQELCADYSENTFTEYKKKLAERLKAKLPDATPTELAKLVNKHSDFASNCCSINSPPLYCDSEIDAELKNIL
# METHOD SUMMARY: Affinity for human DBP: competition with [3H]1α,25(OH)2D3
# Assay type: binding
# CONDITION SUMMARY: percentage activity (at 50% of the dose response) in comparison with 1α,25(OH)2D3 (=100%)
Please go through the items and note down their AFFINITY STUDIES DBP.
Give bare numbers, in %.

Recorded results for 5 molecules are shown here.
- MOLECULE: "CC(CCCC(C)(C)O)C1CCC2C(=CC=C3CC(O)C(C)C(O)C3)CCCC21C (stereo not shown) [Compound 106]"
  AFFINITY STUDIES DBP [%]: 9
- MOLECULE: "CC(CCCC(C)(C)O)C1CCC2C(=CC=C3CC(O)C(C)C(O)C3)CCCC21C (stereo not shown) [Compound 105]"
  AFFINITY STUDIES DBP [%]: 7
- MOLECULE: "CCC1C(O)CC(=CC=C2CCCC3(C)C2CCC3C(C)CCCC(C)(C)O)CC1O (stereo not drawn) [Compound 114, 2α-ethyl-14-epi-19-nor-1α,25(OH)2D3]"
  AFFINITY STUDIES DBP [%]: 40
- MOLECULE: "CC(CC#CC(C)(C)O)C1CCC2C(=CC=C3CC(O)C(C)C(O)C3)CCCC21C (stereo not shown) [Compound 118]"
  AFFINITY STUDIES DBP [%]: 3
- MOLECULE: "CCC1C(O)CC(=CC=C2CCCC3(C)C2CCC3C(C)CCCC(C)(C)O)CC1O (stereo not drawn) [Compound 110, 2α-ethyl-19-nor-1α,25(OH)2D3]"
  AFFINITY STUDIES DBP [%]: 20

Your task in this section: give AFFINITY STUDIES DBP for each listed record.
1. CC(CC#CC(C)(C)O)C1CCC2C(=CC=C3CC(O)C(C)C(O)C3)CCCC21C (stereo not shown) [Compound 104]
2. CCC1C(O)CC(=CC=C2CCCC3(C)C2CCC3C(C)CC#CC(C)(C)O)CC1O (stereo not drawn) [Compound 111, 2β-ethyl-19-nor-23-yne-1α,25(OH)2D3]

Result ::
4
0.5

----------
Please go through the items and note down their IN VIVO STUDIES Calcium serum.
# CONDITION SUMMARY: mouse, in vivo, ip

Recorded results for 4 compounds are shown here.
- COMPOUND: "CC(CC#CC(C)(C)O)C1CCC2C(=CC=C3CC(O)C(C)C(O)C3)CCCC21C (centres unmarked) [Compound 118]"
  RESULT VALUE: "<0.25%"
- COMPOUND: "CCC1C(O)CC(=CC=C2CCCC3(C)C2CCC3C(C)CC#CC(C)(C)O)CC1O (centres unmarked) [Compound 115]"
  RESULT VALUE: "<<0.1%"
- COMPOUND: "CCC1C(O)CC(=CC=C2CCCC3(C)C2CCC3C(C)CCCC(C)(C)O)CC1O (stereo not drawn) [Compound 110, 2α-ethyl-19-nor-1α,25(OH)2D3]"
  RESULT VALUE: "13%"
- COMPOUND: "CCC1C(O)CC(=CC=C2CCCC3(C)C2CCC3C(C)CCCC(C)(C)O)CC1O (centres unmarked) [Compound 113]"
  RESULT VALUE: "0.4%"

Query :: Field request: IN VIVO STUDIES Calcium serum | item: CC(CC#CC(C)(C)O)C1CCC2C(=CC=C3CC(O)C(C)C(O)C3)CCCC21C (centres unmarked) [Compound 104]
Result :: 10%

----------
# CONDITION SUMMARY: mouse, in vivo, ip
OUTCOME MEASURE: IN VIVO STUDIES Calcium urine

Recorded results for 2 compounds are shown here.
- COMPOUND: "CCC1C(O)CC(=CC=C2CCCC3(C)C2CCC3C(C)CC#CC(C)(C)O)CC1O (stereo not drawn) [Compound 115]"
  IN VIVO STUDIES Calcium urine: "<0.1%"
- COMPOUND: "CC(CC#CC(C)(C)O)C1CCC2C(=CC=C3CC(O)C(C)C(O)C3)CCCC21C (stereo not drawn) [Compound 118]"
  IN VIVO STUDIES Calcium urine: "<0.25%"

Query :: Field request: IN VIVO STUDIES Calcium urine | item: CC(CC#CC(C)(C)O)C1CCC2C(=CC=C3CC(O)C(C)C(O)C3)CCCC21C (stereo not drawn) [Compound 117]
Result :: <0.25%

----------
Please go through the items and note down their IN VITRO STUDIES HL 60.
# System: HL-60 cells
# METHOD SUMMARY: HL-60 cell differentiation (NBT reduction assay)
# Assay type: cell-based
# CONDITION SUMMARY: potency to differentiate HL 60 cells, percentage activity vs 1α,25(OH)2D3 (=100%)
Numbers only, in %.

Recorded results for 2 compounds are shown here.
- COMPOUND: "CCC1C(O)CC(=CC=C2CCCC3(C)C2CCC3C(C)CC#CC(C)(C)O)CC1O (stereo not drawn) [Compound 142]"
  UNIT TAG: "%"
  IN VITRO STUDIES HL 60: 400
- COMPOUND: "CC(CC#CC(C)(C)O)C1CCC2C(=CC=C3CC(O)C(C)C(O)C3)CCCC21C (stereo not drawn) [Compound 117]"
  UNIT TAG: "%"
  IN VITRO STUDIES HL 60: 400

Query :: Field request: IN VITRO STUDIES HL 60 | item: CC(CC#CC(C)(C)O)C1CCC2C(=CC=C3CC(O)C(C)C(O)C3)CCCC21C (stereo not drawn) [Compound 107]
Result :: 400
